- tested_target: B. subtilis RNAP (Bacillus subtilis, UniProt P37870+P37871)
- Construct: endogenous in cells; host or cells: Bacillus subtilis strain PL37 (built from strain 168)
- Sequence (P37871 whole entry): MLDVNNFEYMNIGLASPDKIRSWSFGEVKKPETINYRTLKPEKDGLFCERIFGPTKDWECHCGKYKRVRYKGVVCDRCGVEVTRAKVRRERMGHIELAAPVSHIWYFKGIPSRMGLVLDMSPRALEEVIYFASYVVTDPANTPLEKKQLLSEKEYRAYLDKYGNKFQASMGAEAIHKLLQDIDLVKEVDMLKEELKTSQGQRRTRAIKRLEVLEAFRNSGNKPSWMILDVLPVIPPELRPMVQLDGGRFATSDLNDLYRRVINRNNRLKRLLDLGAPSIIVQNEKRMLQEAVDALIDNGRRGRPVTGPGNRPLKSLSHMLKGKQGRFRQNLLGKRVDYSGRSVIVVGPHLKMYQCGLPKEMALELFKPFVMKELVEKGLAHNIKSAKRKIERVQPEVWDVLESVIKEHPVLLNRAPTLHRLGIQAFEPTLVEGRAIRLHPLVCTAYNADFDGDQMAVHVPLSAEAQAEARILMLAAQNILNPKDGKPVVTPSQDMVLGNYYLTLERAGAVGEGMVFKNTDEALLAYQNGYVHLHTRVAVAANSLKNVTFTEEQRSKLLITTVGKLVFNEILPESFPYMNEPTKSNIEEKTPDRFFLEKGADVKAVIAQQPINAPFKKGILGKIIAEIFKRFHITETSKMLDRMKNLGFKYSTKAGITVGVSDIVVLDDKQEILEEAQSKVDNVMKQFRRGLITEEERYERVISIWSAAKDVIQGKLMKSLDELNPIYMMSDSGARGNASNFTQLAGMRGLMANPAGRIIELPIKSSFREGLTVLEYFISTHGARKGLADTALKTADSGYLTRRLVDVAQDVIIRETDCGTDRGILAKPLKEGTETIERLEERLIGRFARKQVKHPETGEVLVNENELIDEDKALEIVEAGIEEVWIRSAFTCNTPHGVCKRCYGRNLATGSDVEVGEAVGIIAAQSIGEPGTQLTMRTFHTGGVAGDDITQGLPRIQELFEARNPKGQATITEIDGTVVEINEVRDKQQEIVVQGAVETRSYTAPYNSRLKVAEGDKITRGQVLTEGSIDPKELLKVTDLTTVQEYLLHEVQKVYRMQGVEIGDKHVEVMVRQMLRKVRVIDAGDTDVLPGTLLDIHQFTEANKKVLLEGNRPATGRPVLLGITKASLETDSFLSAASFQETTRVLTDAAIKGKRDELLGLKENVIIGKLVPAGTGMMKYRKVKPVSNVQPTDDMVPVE
- Sequence (P20429 whole entry, further chain): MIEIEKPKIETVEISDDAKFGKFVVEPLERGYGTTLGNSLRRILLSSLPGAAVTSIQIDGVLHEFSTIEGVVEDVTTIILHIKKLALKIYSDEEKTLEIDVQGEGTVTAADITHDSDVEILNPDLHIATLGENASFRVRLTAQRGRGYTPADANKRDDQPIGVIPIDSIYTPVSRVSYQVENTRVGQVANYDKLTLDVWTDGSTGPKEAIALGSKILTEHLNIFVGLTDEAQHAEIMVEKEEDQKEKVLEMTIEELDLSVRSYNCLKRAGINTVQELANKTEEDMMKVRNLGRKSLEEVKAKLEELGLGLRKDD
- Sequence (O35011 whole entry, further chain): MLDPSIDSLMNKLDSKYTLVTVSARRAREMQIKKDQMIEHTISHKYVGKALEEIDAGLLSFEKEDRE
- Sequence (P37870 whole entry): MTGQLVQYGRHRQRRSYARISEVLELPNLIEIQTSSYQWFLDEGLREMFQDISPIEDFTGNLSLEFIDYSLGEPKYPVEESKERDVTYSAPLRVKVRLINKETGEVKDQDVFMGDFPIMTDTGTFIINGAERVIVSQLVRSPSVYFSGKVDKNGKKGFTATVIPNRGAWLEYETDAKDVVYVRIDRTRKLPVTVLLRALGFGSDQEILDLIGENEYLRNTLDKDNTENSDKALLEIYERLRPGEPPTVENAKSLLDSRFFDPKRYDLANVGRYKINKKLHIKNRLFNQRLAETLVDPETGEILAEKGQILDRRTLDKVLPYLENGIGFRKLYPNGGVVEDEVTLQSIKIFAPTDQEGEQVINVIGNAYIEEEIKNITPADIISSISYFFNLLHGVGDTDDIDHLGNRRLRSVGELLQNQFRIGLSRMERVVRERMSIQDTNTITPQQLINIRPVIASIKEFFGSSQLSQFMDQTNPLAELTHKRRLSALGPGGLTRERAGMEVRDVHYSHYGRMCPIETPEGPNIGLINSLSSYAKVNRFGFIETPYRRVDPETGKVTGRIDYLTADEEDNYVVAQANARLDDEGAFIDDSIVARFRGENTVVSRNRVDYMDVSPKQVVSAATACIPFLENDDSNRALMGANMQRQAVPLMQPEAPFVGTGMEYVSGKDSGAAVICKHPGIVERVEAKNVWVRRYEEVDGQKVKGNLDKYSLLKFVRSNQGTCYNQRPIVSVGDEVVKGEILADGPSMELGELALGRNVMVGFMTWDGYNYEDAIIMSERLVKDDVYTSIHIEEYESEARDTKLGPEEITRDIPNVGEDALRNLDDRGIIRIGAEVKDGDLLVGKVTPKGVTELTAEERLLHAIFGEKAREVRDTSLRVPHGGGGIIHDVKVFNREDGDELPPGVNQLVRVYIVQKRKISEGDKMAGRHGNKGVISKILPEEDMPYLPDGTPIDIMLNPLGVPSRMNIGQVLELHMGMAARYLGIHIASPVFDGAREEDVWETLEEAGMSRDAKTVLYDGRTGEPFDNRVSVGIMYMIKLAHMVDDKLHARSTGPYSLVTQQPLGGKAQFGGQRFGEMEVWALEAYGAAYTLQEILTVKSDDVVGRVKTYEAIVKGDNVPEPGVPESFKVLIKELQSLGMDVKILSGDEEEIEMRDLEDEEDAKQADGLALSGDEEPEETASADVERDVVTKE
- test_summary: Dual reporter assay in strain PL37: test reporter Pxyl-lacZ and ratio of control to test reporter (RES:MUG)
- Assay type: cell-based
- cond: strain PL37; Dilution Number 7; DMSO control […]
Positions of bridges follow the written chain, without caps; N, C: chain ends. Non-standard residues stand in square brackets, D forms with d. Residues, ends and D or L forms follow the SMILES beside them. *: point of attachment. Ileψ(thiazoline)Cys = CC[C@H](C)[C@H](N)C1=N[C@H](C(=O)*)CS1; dOrn = NCCC[C@@H](N)C(=O)O
readout_label: Ratio of the control reporter (RES): test reporter (MUG)
Enter a number only.

compound="CC[C@H](C)[C@H](N)C1=N[C@H](C(=O)N[C@@H](CC(C)C)C(=O)N[C@H](CCC(=O)O)C(=O)N[C@H](C(=O)N[C@H]2CCCCNC(=O)[C@H](CC(N)=O)NC(=O)[C@@H](CC(=O)O)NC(=O)[C@H](Cc3cnc[nH]3)NC(=O)[C@@H](Cc3ccccc3)NC(=O)[C@H]([C@@H](C)CC)NC(=O)[C@@H](CCCN)NC2=O)[C@@H](C)CC)CS1 [Bacitracin] ({Ileψ(thiazoline)Cys}-L[dE]IK[dOrn]I[dF]H[dD]N; lactam 4-C)" tested_target="B. subtilis RNAP (Bacillus subtilis, UniProt P37870+P37871)" reported=1.09

Okay, now this compound:
Request: Indicate the recorded Ratio of the control reporter (RES): test reporter (MUG) value for this compound: CCC[C@@H]1C[C@@H](C(=O)N[C@@H]([C@H]2O[C@H](SC)[C@H](O)[C@@H](O)[C@H]2O)[C@@H](C)O)N(C)C1
Result: 1.08

* * *

- tested_target: B. subtilis RNAP (Bacillus subtilis, UniProt P37870+P37871)
- Construct: endogenous in cells; host or cells: Bacillus subtilis strain PL37 (built from strain 168)
- test_summary: Dual reporter assay in strain PL37: test reporter Pxyl-lacZ and ratio of control to test reporter (RES:MUG)
- Type: cell-based
- cond: strain PL37; Dilution Number 10; DMSO control […]
readout_label: Ratio of the control reporter (RES): test reporter (MUG)
Enter a number only.

molecule="CCC[C@@H]1C[C@@H](C(=O)N[C@@H]([C@H]2O[C@H](SC)[C@H](O)[C@@H](O)[C@H]2O)[C@@H](C)O)N(C)C1 [Lincomycin]" reported=1.03

Request: Indicate the recorded Ratio of the control reporter (RES): test reporter (MUG) value for this molecule: O=C(N[C@H](CO)[C@H](O)c1ccc([N+](=O)[O-])cc1)C(Cl)Cl [Chloramphenicol]
Result: 1.13

Request: Indicate the recorded Ratio of the control reporter (RES): test reporter (MUG) value for this molecule: CNC(=O)[C@@H](C)[C@H]1C(=O)/C(=C(O)/C=C/C(C)=C/[C@@H](C)[C@H]2O[C@@]3(C)O[C@H](C=C[C@@]34CO4)[C@@H]2C)C(=O)N1[C@@H]1CC[C@H](O)[C@H](C)O1 [Streptolydigin]
Result: 1.23

Request: Indicate the recorded Ratio of the control reporter (RES): test reporter (MUG) value for this molecule: CC1(C)S[C@@H]2[C@H](NC(=O)C(C(=O)O)c3ccccc3)C(=O)N2[C@H]1C(=O)O (stereo partly drawn) [Carbenicillin]
Result: 1.05

Request: Indicate the recorded Ratio of the control reporter (RES): test reporter (MUG) value for this molecule: CC1(C)S[C@@H]2[C@H](NC(=O)Cc3ccccc3)C(=O)N2[C@H]1C(=O)O [Penicillin G]
Result: 1.01

Request: Indicate the recorded Ratio of the control reporter (RES): test reporter (MUG) value for this molecule: CO[C@@H]1[C@@H](OC(N)=O)[C@@H](O)[C@H](Oc2ccc3c(O)c(NC(=O)c4ccc(O)c(CC=C(C)C)c4)c(=O)oc3c2C)OC1(C)C [Novobiocin]
Result: 1.18
